Data origin, for the record: ChEMBL document CHEMBL4028811

target: Poly [ADP-ribose] polymerase 2 (Homo sapiens); assay: Inhibition of recombinant human PARP2 expressed in Escherichia coli BL21(DE3) using histone as substrate measured after 1 hr in presence of biotinylated NAD+ by ELISA
Sequence (Q9UGN5 whole entry): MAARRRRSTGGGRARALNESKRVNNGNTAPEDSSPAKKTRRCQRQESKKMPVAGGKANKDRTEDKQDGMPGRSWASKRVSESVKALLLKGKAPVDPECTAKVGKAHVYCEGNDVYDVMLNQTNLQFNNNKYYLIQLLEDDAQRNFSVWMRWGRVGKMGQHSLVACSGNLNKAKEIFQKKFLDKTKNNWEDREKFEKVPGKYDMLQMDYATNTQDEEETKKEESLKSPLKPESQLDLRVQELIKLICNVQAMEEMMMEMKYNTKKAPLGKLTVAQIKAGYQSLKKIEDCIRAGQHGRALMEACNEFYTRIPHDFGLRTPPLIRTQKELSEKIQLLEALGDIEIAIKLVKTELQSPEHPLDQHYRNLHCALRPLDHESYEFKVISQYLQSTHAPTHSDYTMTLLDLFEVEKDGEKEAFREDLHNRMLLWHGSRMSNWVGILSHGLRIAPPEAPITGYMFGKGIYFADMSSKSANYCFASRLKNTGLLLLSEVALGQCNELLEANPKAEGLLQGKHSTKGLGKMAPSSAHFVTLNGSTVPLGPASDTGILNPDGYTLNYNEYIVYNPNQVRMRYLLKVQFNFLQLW
RECORDED_METRIC: IC50 (nM)

Here is how some compounds turned out for IC50.
COMPOUND	IC50 / nM
CC(C)(C)CN1CCC(NC(=O)c2nc3c(C(N)=O)cc(F)cc3[nH]2)CC1	74
NC(=O)c1cc(F)cc2[nH]c(C(=O)N3CCC(N)CC3)nc12	24
NC(=O)c1cc(F)cc2[nH]c(C(=O)N3CCC(NC4CCCCC4)CC3)nc12	34
NC(=O)c1cccc2[nH]c(C(=O)NC3CCN(CC4CC4)CC3)nc12	130
NC(=O)c1cccc2[nH]c(C(=O)NC3CCN(CC(F)(F)F)CC3)nc12	100

(A) CCCNC1CCN(C(=O)c2nc3c(C(N)=O)cccc3[nH]2)C1 (stereo unspecified)
(B) NC(=O)c1cc(F)cc2[nH]c(C(=O)N3CCC(NC4CCCCC4)C3)nc12 (stereo unspecified)
(C) NC(=O)c1cc(F)cc2[nH]c(C(=O)N3CCC(N)C3)nc12 (stereo unspecified)
Rank by IC50 (largest to smallest). Please, when replying, give the labels in the order that was requested.
A, B, C

====

Measured PF50, listed per entry.
biological target: Poly [ADP-ribose] polymerase 1 (Homo sapiens, UniProt P09874); assay: Inhibition of PARP1 in human MX1 cells assessed as potentiation of temozolomide-induced cytotoxicity at 10 uM after 72 hrs by MTT assay relative to temozolomide alone; assay type: cell-based
Sequence (P09874 whole entry): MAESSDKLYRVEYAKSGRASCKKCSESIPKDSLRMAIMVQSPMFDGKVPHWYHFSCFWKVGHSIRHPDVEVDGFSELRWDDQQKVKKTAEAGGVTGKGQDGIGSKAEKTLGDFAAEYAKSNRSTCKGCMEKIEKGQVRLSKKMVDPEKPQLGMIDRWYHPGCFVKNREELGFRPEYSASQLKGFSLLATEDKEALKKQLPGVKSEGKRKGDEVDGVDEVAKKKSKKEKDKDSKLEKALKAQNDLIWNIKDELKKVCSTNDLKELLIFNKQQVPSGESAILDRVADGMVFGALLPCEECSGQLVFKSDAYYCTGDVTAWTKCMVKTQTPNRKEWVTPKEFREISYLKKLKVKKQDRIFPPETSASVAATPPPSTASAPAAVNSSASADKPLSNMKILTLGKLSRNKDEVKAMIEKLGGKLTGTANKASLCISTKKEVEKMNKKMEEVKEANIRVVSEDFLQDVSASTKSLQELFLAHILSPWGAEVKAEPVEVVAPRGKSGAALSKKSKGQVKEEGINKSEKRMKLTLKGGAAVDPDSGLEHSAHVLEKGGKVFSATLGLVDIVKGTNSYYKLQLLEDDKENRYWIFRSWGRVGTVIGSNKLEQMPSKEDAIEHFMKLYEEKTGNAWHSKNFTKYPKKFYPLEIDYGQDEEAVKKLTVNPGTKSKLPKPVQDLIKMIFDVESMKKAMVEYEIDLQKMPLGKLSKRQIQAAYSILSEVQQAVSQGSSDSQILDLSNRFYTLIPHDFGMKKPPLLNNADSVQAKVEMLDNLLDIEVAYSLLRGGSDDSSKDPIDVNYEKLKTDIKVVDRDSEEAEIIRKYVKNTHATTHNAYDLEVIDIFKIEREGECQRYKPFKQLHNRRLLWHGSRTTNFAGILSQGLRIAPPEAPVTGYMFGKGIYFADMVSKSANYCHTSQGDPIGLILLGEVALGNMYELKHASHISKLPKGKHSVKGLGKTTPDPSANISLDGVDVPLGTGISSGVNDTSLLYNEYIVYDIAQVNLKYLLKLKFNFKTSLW
Lab note: write the figure by itself, no unit.

As a guide, the following entries are already answered.
COMPOUND	ASSAY_VALUE
NC(=O)c1cccc2[nH]c(C(=O)NC3CCNCC3)nc12	1.75
NC(=O)c1cccc2[nH]c(C(=O)NC3CCN(CC4CC4)CC3)nc12	3.53
NC(=O)c1cccc2[nH]c(C(=O)N3CCC(N)CC3)nc12	1.99

Give the value of PF50 reported for the following: NC(=O)c1cc(F)cc2[nH]c(C(=O)N3CCC(N)C3)nc12 (configuration not stated)
1.07

Answer with the recorded PF50 for the compound listed here: NC(=O)c1cccc2[nH]c(C(=O)NC3CCN(CC(F)(F)F)CC3)nc12
0.93

====

biological target: Poly [ADP-ribose] polymerase 1 (Homo sapiens, UniProt P09874); experiment: Inhibition of recombinant human PARP1 expressed in Escherichia coli BL21(DE3) using histone as substrate measured after 1 hr in presence of biotinylated NAD+ by ELISA
RECORDED_METRIC: IC50 (µM)

Some molecules with known IC50 results, for comparison:
MOLECULE	IC50 / µM
CC[C@H]1CN(C(=O)c2nc3c(C(N)=O)cccc3[nH]2)CCN1C(=O)OC(C)(C)C	0.1
NC(=O)c1cccc2[nH]c(C(=O)N3CCC(NC4CCCCC4)CC3)nc12	0.07
CCC(CC)N1CCC(NC(=O)c2nc3c(C(N)=O)cc(F)cc3[nH]2)CC1	0.03

(P) NC(=O)c1cccc2[nH]c(C(=O)N3CCC(N)C3)nc12 (configuration not stated)
(Q) CC(C)(C)CN1CCC(NC(=O)c2nc3c(C(N)=O)cccc3[nH]2)CC1
(R) CCC(CC)N1CCC(NC(=O)c2nc3c(C(N)=O)cccc3[nH]2)CC1
(S) NC(=O)c1cccc2[nH]c(C(=O)NC3CCN(C(=O)C(F)(F)F)CC3)nc12
(T) CC(C)(C)OC(=O)N1CCC(NC2CCN(C(=O)c3nc4c(C(N)=O)cccc4[nH]3)C2)CC1 (configuration not stated)
Exam item: list the entries in increasing order of IC50. Sort the labels as requested; that list is your answer.
P, Q, S, R, T
